tested_on: T1, human ROR1 (hROR1) on cells (human, UniProt Q01973 30-937)
T1 construct: whole, on cells; the cell line is named under assay; also called HEK293T-hROR1; 293T-hROR1
assay_remarks: flow cytometry (FACS) on HEK293T-hROR1 cells, antibody 0.01-100 nM, median fluorescence intensity
test_readout: EC50 (read off the curve)

>  <binder>
PR001417 (antibody, V domains shown, fully human IgG1, kappa) VH: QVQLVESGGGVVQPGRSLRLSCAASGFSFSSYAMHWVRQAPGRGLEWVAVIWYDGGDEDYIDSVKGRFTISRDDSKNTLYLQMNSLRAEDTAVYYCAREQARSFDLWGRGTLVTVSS VL: DVVMTQSPSTLSASVGDRVTITCRASQSINSWLAWYQQKPGKAPKLLIYKASSLESGVPSRFSGSGSGTEFTLTISSLQPDDFATYYCQQYNSYSPMYTFGQGTKVEIKR

>  <EC50 (read off the curve)>
~3 nM

$$$$

In: Request the reported EC50 (read off the curve) associated with PR001416 (antibody, human IgG1, kappa, V domains shown, fully human IgG1, kappa) VH: QVQLVESGGGVVQPGRSLRLSCAASGFTFSTYGMHWVRQAPGKGLEWVAVIWYDGSDKDYADSVKGRFTISRDTSKNTLYLQMNSLRAEDTAVYYCAREQARSFDLWGRGTLVTVSS VL: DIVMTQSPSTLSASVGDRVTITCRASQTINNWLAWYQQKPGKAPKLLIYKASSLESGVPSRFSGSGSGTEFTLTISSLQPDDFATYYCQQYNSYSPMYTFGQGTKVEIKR
Out: ~2 nM
